Here is a set of molecules with reported pKi for the protein given by its sequence, compiled from the literature.
Target chain: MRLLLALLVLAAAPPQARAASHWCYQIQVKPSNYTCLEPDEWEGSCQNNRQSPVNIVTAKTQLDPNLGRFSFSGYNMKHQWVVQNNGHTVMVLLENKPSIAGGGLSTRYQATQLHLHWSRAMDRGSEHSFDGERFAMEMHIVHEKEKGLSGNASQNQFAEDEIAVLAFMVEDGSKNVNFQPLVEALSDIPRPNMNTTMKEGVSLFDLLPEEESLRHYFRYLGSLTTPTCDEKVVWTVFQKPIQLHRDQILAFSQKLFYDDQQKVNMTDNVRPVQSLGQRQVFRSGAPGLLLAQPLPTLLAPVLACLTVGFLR
Entry type: numeric. Quantity: pKi, the -log10 of concentration in molar units.

Worked examples, 3 molecules total:
NS(=O)(=O)c1ccc(N/C(S)=N/C(CO)C(=O)O)cc1 (centres undefined)    7.82
NCCCC(=O)NCc1ccc(S(N)(=O)=O)cc1    7.16
NS(=O)(=O)c1nnc(NC(=O)CCNC(=O)C(F)(F)C(F)(F)C(F)(F)C(F)(F)C(F)(F)C(F)(F)C(F)(F)C(F)(F)F)s1    8.10

Read the next record carefully.
Looking up C[C@H](CCC(=O)/N=c1\sc(S(N)(=O)=O)nn1C)[C@H]1CC[C@H]2[C@@H]3CC[C@@H]4C[C@H](O)CC[C@]4(C)[C@H]3CC[C@]12C , I found its pKi recorded as 7.68
